assay: in vivo; design: species or system NSG mice; settings: NSG, mouse, ip, 20 mg/kg, T1/2 elimination

chemicalStructure: CC(C)CCC[C@@H](C)[C@H]1CC[C@H]2[C@@H]3C[C@@H](NCCc4cnc[nH]4)[C@@]4(O)C[C@@H](O)CC[C@]4(C)[C@H]3CC[C@]12C
half-life: 54 min
